test system: HBsAg; test: HBsAg assay (CLIA of secreted HBsAg in HepG2.2.15 culture supernatant); type: cell-based, HBV; conditions: Hepatitis B virus, HepG2.2.15, read-out: IC50 (HBsAg assay)
measured attribute: pIC50
Reminder that pIC50 is minus the log10 of a molar concentration.

# annotated cases, reported pIC50 shown
• O=C(c1ccccc1)N1CCc2nc(-c3ccccn3)ncc2C1 = 4.61
• O=C(c1cccc(C(F)(F)F)c1)N1CCc2nc(-c3ccccn3)ncc2C1 = 4.73
• Cc1cc(C(=O)N2CCc3nc(-c4ccccn4)ncc3C2)no1 = 5.09
• O=C(c1ccc(F)c(F)c1)N1CCc2nc(-c3ccccn3)ncc2C1 = 4.58
• CC1c2cnc(-c3ncccn3)nc2CCN1C(=O)c1n[nH]c2ccccc12 (centres unmarked) = 6.35

Query :: Can you look up pIC50 on HBsAg for COc1ccc(C(=O)N2CCc3nc(-c4ccccn4)ncc3C2)cc1F ?
Result :: 5.31

Query :: Query for HBsAg: what pIC50 does the record show for CC1c2cnc(-c3ncccn3)nc2CCN1C(=O)c1nn(Cc2ccccc2)c2ccccc12 (centres unmarked) ?
Result :: 6.41

Query :: Under HBsAg: pIC50 value of CC1c2cnc(-c3ccccn3)nc2CCN1C(=O)c1cc2ccccc2s1 (centres unmarked) ?
Result :: 6.33

Query :: Param readout = pIC50; param system = HBsAg; param query = O=C(c1ccc(C(F)(F)F)cc1)N1CCc2nc(-c3ccccn3)ncc2C1 ; response: value
Result :: 4.81
